- Tested on: SKBR3 (PI3Kα-Wild Type) cell line
- ASSAY_COMMENT: HTRF phospho-AKT(S473) cell assay in SKBR3 cells
- Format: cell-based, human
- CONDITION_DETAILS: Homo sapiens, SK-BR-3; HTRF phospho-AKT(S473), SKBR3 (PI3Kα-Wild Type) cells, 2 hours compound incubation, PDGF-BB stimulated
pIC50: −log10 of the molar value.
MEASUREMENT_TYPE: pIC50

// worked examples, pIC50 included
>  <MOLECULE>
Cc1cc([C@@H](C)Nc2ccc(Cl)nc2C(=O)NS(C)(=O)=O)c2nc(N3C[C@H]4C[C@@H]3CN4c3ncc(C#N)cc3F)n(C)c(=O)c2c1

>  <pIC50>
≤ 5.30

$$$$
>  <MOLECULE>
Cc1cc([C@@H](C)Nc2ccc(Cl)nc2C(=O)NS(=O)(=O)C2COC2)c2nc(N3Cc4cn(-c5ccccc5C)nc4C3)n(C)c(=O)c2c1

>  <pIC50>
≤ 5.30

$$$$
>  <MOLECULE>
Cc1cc([C@@H](C)Nc2ccc(Cl)nc2C(=O)NS(C)(=O)=O)c2nc(C3CCN(c4ccccc4)CC3)n(C)c(=O)c2c1

>  <pIC50>
5.30 to 6.00

$$$$
>  <MOLECULE>
Cc1cc([C@@H](C)Nc2ccc(Cl)nc2C(=O)NS(C)(=O)=O)c2nc(N3CCC[C@H](c4cnccn4)C3)n(C)c(=O)c2c1 (relative stereo)

>  <pIC50>
≤ 5.30

$$$$
>  <MOLECULE>
Cc1cc([C@@H](C)Nc2ccc(Cl)nc2C(=O)NS(C)(=O)=O)c2nc(N3C[C@@H]4[C@H](C3)[C@H]4c3cc4ccccn4n3)n(C)c(=O)c2c1

>  <pIC50>
≤ 5.30

$$$$

Form field pIC50, entry Cc1cc([C@@H](C)Nc2ccc(Cl)nc2C(=O)NS(C)(=O)=O)c2nc(N3C[C@H]4C[C@@H]3CN4c3nc(C)ncc3F)n(C)c(=O)c2c1 : ≤ 5.30

Value of measured pIC50 for the entry Cc1cc([C@@H](C)Nc2ccc(Cl)nc2C(=O)NS(C)(=O)=O)c2nc(-c3ccc(-c4ccn(C)n4)cn3)n(C)c(=O)c2c1 : 5.30 to 6.00

// pIC50 value for Cc1cc([C@@H](C)Nc2ccc(Cl)nc2C(=O)NS(C)(=O)=O)c2nc(-c3ccc4nn(CC5CC5)cc4c3)n(C)c(=O)c2c1 : 5.30 to 6.00

// recorded pIC50 for Cc1cc([C@@H](C)Nc2ccc(Cl)nc2C(=O)NS(C)(=O)=O)c2nc(N3CCC(c4c(F)cnn4C(F)F)CC3)n(C)c(=O)c2c1 : ≤ 5.30
